Quick reference for Residual Rate among some compounds
- MEASUREMENT NOTES: Hydrolysis of dipeptides in human plasma
- Type: in vitro ADME
- CONDITION LABEL: 10 mM dipeptide, 37° C., 30 minutes
- Experimental: Each of the dipeptides shown in Table 1 below was added to 0.75 ml of plasma collected and prepared from human to give a concentration of 10 mM, followed by reaction at 37° C. for 30 minutes.
Where a SMILES comes first, the peptide text is derived from it.

COMPOUND | Residual Rate, %
C[C@H](N)C(=O)N[C@@H](CCC(N)=O)C(=O)O [L-Alanyl-L-glutamine, reference compound] (H-Ala-Gln-OH) | 74
NC(=O)CC[C@H](NC(=O)[C@@H](N)CC(=O)O)C(=O)O [L-Aspartyl-L-glutamine] (H-Asp-Gln-OH) | 58
NC(=O)CC[C@H](NC(=O)CC[C@H](N)C(=O)O)C(=O)O | 99
NCC(=O)N[C@@H](CCC(N)=O)C(=O)O [Glycyl-L-glutamine] (H-Gly-Gln-OH) | 84

Reference source: patent US5134125A
